target: human JAK2 (a.a. 828-1132) (Homo sapiens); construct: JAK2 (a.a. 828-1132); His tag (N); made in house; host or cells: insect cells (baculovirus); experiment: In vitro JAK kinase assay (HTRF, phosphorylation of a biotinylated peptide), JAK2; format: biochemical; settings: method AA1 (30 μM ATP) or AA2 (1000 μM ATP), not stated per value
Sequence (O60674 828-1132): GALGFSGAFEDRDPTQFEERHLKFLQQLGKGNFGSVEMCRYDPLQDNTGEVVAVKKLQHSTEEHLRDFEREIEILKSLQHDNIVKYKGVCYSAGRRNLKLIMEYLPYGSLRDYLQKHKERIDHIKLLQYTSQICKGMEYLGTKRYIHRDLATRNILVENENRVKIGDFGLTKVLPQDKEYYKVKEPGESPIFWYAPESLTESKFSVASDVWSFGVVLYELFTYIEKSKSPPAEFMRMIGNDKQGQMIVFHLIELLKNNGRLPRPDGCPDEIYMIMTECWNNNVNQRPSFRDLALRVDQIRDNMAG
pIC50: −log10 of the molar value. Where a name gives a salt, the structure may show the parent alone.
READOUT_TYPE: pIC50

Examples with their reported pIC50 follow.
Cc1oncc1S(=O)(=O)N1CCC(CC(=O)Nc2ccc3cc2CCc2cccc(c2)Nc2ncc(Cl)c(n2)N3)CC1 [Example A210, trifluoroacetate] ... 7.05
Cc1noc(C)c1C(=O)N1CCC(CC(=O)Nc2ccc3cc2CCc2cncc(c2)Nc2ncc(Cl)c(n2)N3)CC1 [Example A156, bis(trifluoroacetate)] ... 6.04
O=C(COc1cc2cc(c1)Nc1nc(ncc1Cl)Nc1cccc(c1)CC2)Nc1ccccc1 [Example A24, trifluoroacetate] ... 8.37

[I] Nc1nonc1C(=O)N1CCC(CC(=O)Nc2ccc3cc2CCc2cncc(c2)Nc2ncc(Cl)c(n2)N3)CC1 [Example A167, tris(trifluoroacetate)]
[II] C[C@H](O)C(=O)Nc1ccc2cc1CCc1cccc(c1)Nc1ncc(Cl)c(n1)N2 [Example A106, trifluoroacetate]
**Q:** Field: lower recorded pIC50 (choose I or II ) Kindly give the label for the entry you pick.
**A:** I

[1] CC(=O)N1CCN(C(=O)COc2ccc3cc2CCc2cccc(c2)Nc2ncc(Cl)c(n2)N3)CC1 [Example A20, trifluoroacetate]
[2] O=C(CC1CCN(S(=O)(=O)c2ccccc2Cl)CC1)Nc1ccc2cc1CCc1cncc(c1)Nc1ncc(Cl)c(n1)N2 [Example A223, bis(trifluoroacetate)]
**Q:** Given 1 and 2 , report the one with the higher recorded pIC50. Kindly give the label for the entry you pick.
**A:** 1

[P] O=C(Nc1ccc2cc1CCc1cccc(c1)Nc1ncc(Cl)c(n1)N2)C1CCN(C(=O)NC2CCCC2)CC1 [Example A61, trifluoroacetate]
[Q] O=C(CC1CCN(C(=O)c2ccon2)CC1)Nc1ccc2cc1CCc1cncc(c1)Nc1ncc(Cl)c(n1)N2 [Example A135, bis(trifluoroacetate)]
**Q:** Field: lower recorded pIC50 (choose P or Q ) Kindly give the label for the entry you pick.
**A:** P
(P: 7.96, Q: 8.64)

---

target: human JAK1 (a.a. 837-1142) (Homo sapiens); construct: human JAK1 (a.a. 837-1142); His tag (N); made in house; host or cells: insect cells (baculovirus); experiment: In vitro JAK kinase assay (HTRF, phosphorylation of a biotinylated peptide), JAK1; format: biochemical; conditions: Table B1; read-out: JAK1 IC50
Sequence (P23458 849-1154): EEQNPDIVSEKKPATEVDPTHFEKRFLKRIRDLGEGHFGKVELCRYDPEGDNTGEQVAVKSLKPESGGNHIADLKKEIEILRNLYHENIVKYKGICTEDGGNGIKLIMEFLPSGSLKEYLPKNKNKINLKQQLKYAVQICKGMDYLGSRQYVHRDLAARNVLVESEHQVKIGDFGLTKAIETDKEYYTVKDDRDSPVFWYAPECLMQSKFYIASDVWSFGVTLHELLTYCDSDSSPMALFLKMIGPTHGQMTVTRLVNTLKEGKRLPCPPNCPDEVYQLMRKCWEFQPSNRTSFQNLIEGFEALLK
Where a name gives a salt, the structure may show the parent alone.
READOUT_TYPE: IC50 (µM)

Examples with their reported IC50 follow.
O=C(Nc1ccc2cc1CCc1cccc(c1)Nc1ncc(Cl)c(n1)N2)c1ccc(Cl)nc1 [Example B69, bis(trifluoroacetate)] ... 0.00045
CN(Cc1ccc2cc1CCc1cncc(c1)Nc1ncc(Cl)c(n1)N2)CC1CCN(S(=O)(=O)c2ccccc2)CC1 [Example B341, tris(trifluoroacetate)] ... 0.013
Cc1ccc(Cl)cc1NC(=O)Nc1ccc2cc1CCc1cccc(c1)Nc1ncc(Cl)c(n1)N2 [Example B123, trifluoroacetate] ... 0.0079
CNCc1ccc2cc1CCc1cncc(c1)Nc1ncc(Cl)c(n1)N2 [Example B334, trihydrochloride] ... 0.044
O=C(Nc1ccc2cc1CCc1cccc(c1)Nc1ncc(Cl)c(n1)N2)c1ccncc1 [Example B39, bis(trifluoroacetate)] ... 0.0002

[A] Cc1ncoc1C(=O)Nc1ccc2cc1CCc1cccc(c1)Nc1ncc(Cl)c(n1)N2 [Example B78, trifluoroacetate]
[B] O=C(Nc1nccs1)Nc1ccc2cc1CCc1cccc(c1)Nc1ncc(Cl)c(n1)N2 [Example B245, trifluoroacetate]
**Q:** Field: lower recorded IC50 (choose A or B ) Kindly give the label for the entry you pick.
**A:** A
(A: 0.011 µM, B: 0.017 µM)

[1] Cc1occc1NC(=O)N1CCC(CN(C)Cc2ccc3cc2CCc2cncc(c2)Nc2ncc(Cl)c(n2)N3)CC1 [Example B349, tris(trifluoroacetate)]
[2] O=C(Nc1ccc2cc1CCc1cccc(c1)Nc1ncc(Cl)c(n1)N2)c1ccc2occc2c1 [Example B79, trifluoroacetate]
**Q:** Field: lower recorded IC50 (choose 1 or 2 ) Kindly give the label for the entry you pick.
**A:** 2

[A] CCS(=O)(=O)Nc1ccc2cc1CCc1cccc(c1)Nc1ncc(Cl)c(n1)N2 [Example B141, trifluoroacetate]
[B] O=C(Nc1ccc2cc1CCc1cncc(c1)Nc1ncc(Cl)c(n1)N2)N1CCC(S(=O)(=O)c2ccccc2)C1 (stereo not shown) [Example B321, bis(trifluoroacetate)]
[C] COc1ccc(N2CCN(C(=O)Nc3ccc4cc3CCc3cncc(c3)Nc3ncc(Cl)c(n3)N4)CC2)cc1 [Example B299, tris(trifluoroacetate)]
**Q:** Order these by IC50, descending, and give the full ranking. Labels, requested order.
**A:** B, C, A
(B: 0.075 µM, C: 0.03 µM, A: 0.0008 µM)

---

target: TYK2 (Homo sapiens); experiment: TYK2 kinase inhibition (Table A1); format: biochemical; conditions: Table B1
Sequence (P29597 whole entry): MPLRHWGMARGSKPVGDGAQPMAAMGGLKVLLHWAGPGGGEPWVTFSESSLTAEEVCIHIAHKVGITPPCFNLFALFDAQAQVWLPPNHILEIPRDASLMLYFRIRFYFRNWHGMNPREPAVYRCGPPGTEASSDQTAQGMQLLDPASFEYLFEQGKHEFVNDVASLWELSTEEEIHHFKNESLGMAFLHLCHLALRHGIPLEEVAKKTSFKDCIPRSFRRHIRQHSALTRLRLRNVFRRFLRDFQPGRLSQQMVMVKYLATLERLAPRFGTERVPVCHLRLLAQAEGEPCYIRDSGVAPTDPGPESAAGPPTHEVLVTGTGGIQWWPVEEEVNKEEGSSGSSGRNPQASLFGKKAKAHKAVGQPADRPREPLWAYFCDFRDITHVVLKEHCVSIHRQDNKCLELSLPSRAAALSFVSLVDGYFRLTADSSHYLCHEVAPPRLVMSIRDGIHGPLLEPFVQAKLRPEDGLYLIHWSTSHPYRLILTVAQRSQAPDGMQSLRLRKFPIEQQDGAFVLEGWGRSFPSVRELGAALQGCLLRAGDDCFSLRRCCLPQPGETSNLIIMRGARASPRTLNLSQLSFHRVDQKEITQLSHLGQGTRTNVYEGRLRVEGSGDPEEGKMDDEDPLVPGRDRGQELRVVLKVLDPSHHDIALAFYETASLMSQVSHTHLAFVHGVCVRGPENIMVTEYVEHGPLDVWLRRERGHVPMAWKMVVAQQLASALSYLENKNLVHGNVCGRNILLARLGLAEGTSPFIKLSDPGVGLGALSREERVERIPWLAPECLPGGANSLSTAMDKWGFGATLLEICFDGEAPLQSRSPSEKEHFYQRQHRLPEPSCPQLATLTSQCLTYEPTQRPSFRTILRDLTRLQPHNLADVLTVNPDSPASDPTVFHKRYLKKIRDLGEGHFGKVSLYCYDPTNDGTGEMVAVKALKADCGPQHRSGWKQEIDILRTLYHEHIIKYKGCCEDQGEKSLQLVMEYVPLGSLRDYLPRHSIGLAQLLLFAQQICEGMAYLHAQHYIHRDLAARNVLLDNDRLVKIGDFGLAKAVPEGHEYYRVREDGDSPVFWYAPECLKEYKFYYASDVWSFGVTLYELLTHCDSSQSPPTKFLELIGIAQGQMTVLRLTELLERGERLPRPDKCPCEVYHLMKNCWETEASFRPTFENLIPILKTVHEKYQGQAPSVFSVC
pIC50: −log10 of the molar value. Where a name gives a salt, the structure may show the parent alone.
READOUT_TYPE: pIC50

O=C(Nc1ccccc1Cl)Nc1ccc2cc1CCc1cccc(c1)Nc1ncc(Cl)c(n1)N2 [Example B84, trifluoroacetate] ... 8.38

[P] CNC(=O)Nc1ccc2cc1CCc1cccc(c1)Nc1ncc(Cl)c(n1)N2 [Example B114, trifluoroacetate]
[Q] N#CNC(=O)Nc1ccc2cc1CCc1cccc(c1)Nc1ncc(Cl)c(n1)N2 [Example B323, trifluoroacetate]
[R] Cc1oncc1S(=O)(=O)N1CCC(CN(C)Cc2ccc3cc2CCc2cncc(c2)Nc2ncc(Cl)c(n2)N3)CC1 [Example B342, tris(trifluoroacetate)]
**Q:** Order these by pIC50, descending, and give the full ranking. Labels, requested order.
**A:** Q, P, R
(Q: 9.05, P: 8.27, R: 6.65)

---

molecular target: human JAK1 (a.a. 837-1142) (Homo sapiens); construct: human JAK1 (a.a. 837-1142); His tag (N); made in house; host or cells: insect cells (baculovirus); assay: In vitro JAK kinase assay (HTRF, phosphorylation of a biotinylated peptide), JAK1; assay type: biochemical; settings: method AA1 (90 μM ATP) or AA2 (1000 μM ATP), not stated per value; read-out: JAK1 IC50
Structures can show the parent of a compound that is named as a salt.
READOUT_TYPE: IC50 (nM)

Cn1cncc1C(=O)N1CCC(CC(=O)Nc2ccc3cc2CCc2cncc(c2)Nc2ncc(Cl)c(n2)N3)CC1 [Example A134, bis(trifluoroacetate)] ... 6.2

[a] Cc1oncc1S(=O)(=O)N1CCC(CC(=O)Nc2ccc3cc2CCc2cccc(c2)Nc2ncc(Cl)c(n2)N3)CC1 [Example A210, trifluoroacetate]
[b] O=C(CC1CCN(C(=O)c2c[nH]nn2)CC1)Nc1ccc2cc1CCc1cncc(c1)Nc1ncc(Cl)c(n1)N2 [Example A137, bis(trifluoroacetate)]
**Q:** Field: lower recorded IC50 (choose a or b ) Kindly give the label for the entry you pick.
**A:** b

---

target: human JAK3 (a.a. 781-1124) (Homo sapiens); construct: JAK3 (a.a. 781-1124); His tag (N); made in house; host or cells: insect cells (baculovirus); assay: In vitro JAK kinase assay (HTRF, phosphorylation of a biotinylated peptide), JAK3; type: biochemical; details: Table D1
Sequence (P52333 781-1124): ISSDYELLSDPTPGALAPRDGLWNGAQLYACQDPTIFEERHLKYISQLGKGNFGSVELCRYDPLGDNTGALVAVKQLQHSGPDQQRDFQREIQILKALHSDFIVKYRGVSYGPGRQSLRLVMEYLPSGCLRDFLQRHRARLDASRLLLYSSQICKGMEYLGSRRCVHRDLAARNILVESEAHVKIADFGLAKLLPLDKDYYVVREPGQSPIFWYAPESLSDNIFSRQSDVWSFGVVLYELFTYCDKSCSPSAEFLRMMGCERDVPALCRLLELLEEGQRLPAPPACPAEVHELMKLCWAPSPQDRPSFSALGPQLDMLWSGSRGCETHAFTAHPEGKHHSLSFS
pIC50: −log10 of the molar value. Counter-ions that a name gives are not always drawn.
READOUT_TYPE: pIC50

Examples with their reported pIC50 follow.
O=C(C[C@@H]1CCN(c2nc3ccccc3s2)C1)Nc1ccc2cc1CCc1cncc(c1)Nc1ncc(Cl)c(n1)N2 [Example D137, tris(trifluoroacetate)] ... < 6.00
CN1c2cccc(c2)CCc2cccc(c2)Nc2nccc1n2 [Example D223, trifluoroacetate] ... < 6.40
Clc1cnc2nc1Nc1cccc(c1)OCCc1cc(Br)cc(c1)N2 [Example D22, trifluoroacetate] ... 7.39

Let's switch to this compound now.
**Q:** // map Cc1oncc1C(=O)N1CCC(CCOc2ccc3cc2CCc2cncc(c2)Nc2ncc(Cl)c(n2)N3)CC1 [Example D178, bis(trifluoroacetate)] to recorded pIC50 (system: human JAK3 (a.a. 781-1124) (Homo sapiens))
**A:** < 6.40

---

target: human JAK2 (a.a. 828-1132) (Homo sapiens); construct: JAK2 (a.a. 828-1132); His tag (N); made in house; host or cells: insect cells (baculovirus); assay: In vitro JAK kinase assay (HTRF, phosphorylation of a biotinylated peptide), JAK2; type: biochemical; conditions: Table D1
Where a name gives a salt, the structure may show the parent alone.
READOUT_TYPE: IC50 (nM)

Examples with their reported IC50 follow.
O=C(NCc1ccco1)Nc1cc2cc(c1)OCCSc1cccc(c1)Nc1nc(ncc1Cl)N2 [Example D67, trifluoroacetate] ... 1.8
O=C(CC1CN(C(=O)c2ccno2)C1)Nc1ccc2cc1CCc1cncc(c1)Nc1ncc(Cl)c(n1)N2 [Example D144, bis(trifluoroacetate)] ... 172
Clc1cnc2nc1Nc1cccc(c1)CNCc1cccc(c1)N2 [Example D73, bis(trifluoroacetate)] ... 106
O=C(c1ccc(C(F)(F)F)cc1)N1CCN(c2ccc3cc2CCc2cccc(c2)Nc2ncc(Cl)c(n2)N3)CC1 [Example D96, bis(trifluoroacetate)] ... 49

[1] O=C(OCc1ccccc1)N1CCC(CCNc2ccc3cc2CCc2cncc(c2)Nc2ncc(Cl)c(n2)N3)CC1
[2] Clc1cnc2nc1Nc1cccc(c1)NCCOc1cccc(c1)N2 [Example D72, bis(trifluoroacetate)]
**Q:** Field: lower recorded IC50 (choose 1 or 2 ) Kindly give the label for the entry you pick.
**A:** 2
(2: 2.2 nM, 1: 44 nM)
